What Potency was measured for each of the following?
- Test Target: Glucocorticoid receptor (Homo sapiens)
- Protocol Details: GR-GFP Redistribution (AID 450); further: potency means the concentration at half of the fitted maximal effect
- Reported Conditions: U2OS GR-GFP nuclear translocation, laser cytometry, 2 h
Calls of active or inactive are those of the source.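 How the source made its calls: active means compounds whose dose series gives a full or clear partial fitted curve of increased nuclear translocation; inconclusive means weak partial curve or effect only at the top dose; inactive means no dose-dependent translocation response.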

Solved entries:
Clc1ccccc1/C=C\c1ccnc2ccccc12 :: > 46 µM (inactive)
COCCn1c(=O)c(-c2ccc(OC)cc2)nc2cnc(Oc3ccccc3)nc21 :: > 9.22 µM (inactive)
NS(=O)(=O)c1ccc(NCc2cnc3ccccc3n2)cc1 :: > 46 µM (inactive)
Cc1nc2cnc(N3CCNCC3)nc2n(-c2ccccc2)c1=O :: > 9.22 µM (inactive)
Cc1c(Cl)cc(C(C)(C)C)c(O)c1Cc1c(C)c(Cl)cc(C(C)(C)C)c1O :: > 46 µM (inactive)

Value sought for every listed compound: Potency.
1. CN(C)CC(C)(C)CN1c2ccccc2Sc2ccccc21
2. O=C(O)CSc1nc2ccccc2[nH]1

1: > 46 µM (inactive); 2: > 46 µM (inactive)

Hello, I would appreciate it if you could give Potency for each entry below.
1. CN(C)Cc1ccccc1-c1ccc2ncnc(NC3CCNCC3)c2c1
2. C/C(=N/NC1=NCCN1)c1cn(C2=NCCN2)nc1C

1: > 46 µM (inactive); 2: > 46 µM (inactive)

Value source: PubChem BioAssay (NCATS)
